tested on: S. aureus JE2 (USA300); assay: Broth microdilution MIC/MBC, S. aureus; format: cell-based, Staphylococcus aureus; settings: value in parentheses
This listing pairs compounds with measured MBC S. aureus JE2 (USA300).

{"columns": ["compound", "MBC S. aureus JE2 (USA300)"],
 "data": [
  ["CC[PH](CC)(CC)[Au][S]c1ccccc1 [Compound 15]", "0.6 µM"],
  ["CC[PH](CC)(CC)[Au][S]C1OC(CO)C(O)C(O)C1O (centres unmarked) [Compound 11]", "0.1 µM"],
  ["CC(=O)OCC1O[C@@H]([S][Au-][P+](c2ccccc2)(c2ccccc2)c2ccccc2)C(OC(C)=O)[C@@H](OC(C)=O)[C@@H]1OC(C)=O (some centres unmarked) [Compound 33]", "2 µM"],
  ["CC[PH](CC)(CC)[Au][S]C1OC(CO)C(O)C(O)C1O (centres unmarked) [Compound 10]", "0.1 µM"],
  ["FC(F)(F)c1ccc(P(c2ccc(C(F)(F)F)cc2)c2ccc(C(F)(F)F)cc2)cc1.[Cl][Au] [Compound 30]", "11 µM"],
  ["CCCC[P+](CCCC)(CCCC)[Au-][S][C@@H]1OC(COC(C)=O)[C@@H](OC(C)=O)[C@H](OC(C)=O)C1OC(C)=O (some centres unmarked) [Compound 32]", "3 µM"],
  ["CCCC[PH](CCCC)(CCCC)[Au][Cl] [Compound 26, (Tri-n-butylphosphine)gold Chloride]", "4 µM"],
  ["CC[P+](CC)(CC)[Au-][S]CC(=O)OC [Compound 22]", "0.02 µM"]
]}

###

test system: S. aureus JE2 (USA300); assay: Broth microdilution MIC/MBC, S. aureus; type: cell-based, Staphylococcus aureus; settings: value in parentheses
// assign 1 if MBC S. aureus JE2 (USA300) falls strictly below 2 µM, else -1 (ties count as -1)

{"columns": ["compound", "class"],
 "data": [
  ["CC[PH](CC)(CC)[Au][S]c1ccc(C(F)(F)F)cc1", 1],
  ["CC[P+](CC)(CC)[Au-][S]CCO", 1],
  ["COc1ccc([P+]([Au-][Cl])(c2ccc(OC)cc2)c2ccc(OC)cc2)cc1", -1],
  ["C[PH](C)(C)[Au][S]C1OC(CO)C(O)C(O)C1O (centres unmarked) [Compound 37]", 1],
  ["CC(=O)OCC1O[C@@H]([S][Au-][P+](c2ccc(C(F)(F)F)cc2)(c2ccc(C(F)(F)F)cc2)c2ccc(C(F)(F)F)cc2)C(OC(C)=O)[C@@H](OC(C)=O)[C@@H]1OC(C)=O (some centres unmarked)", -1],
  ["C[PH](C)(C)[Au][S]C1OC(CO)C(O)C(O)C1O (centres unmarked) [Compound 38]", 1],
  ["CC[PH](CC)(CC)[Au][S]c1ccc(N)cc1", 1],
  ["CCP(CC)CC.[Au+].[Cl-] [Compound 25, (Triethylphosphine)gold Chloride]", 1],
  ["CC[P+](CC)(CC)[Au-][S]c1ccc([N+](=O)[O-])cc1", 1],
  ["CC[PH](CC)(CC)[Au][S]C1OC(CO)C(OC2OC(CO)C(O)C(O)C2O)C(O)C1O (centres unmarked)", 1],
  ["[Cl][Au].c1ccc(P(c2ccccc2)c2ccccc2)cc1 [Compound 27, (Triphenylphosphine)gold Chloride]", -1],
  ["C[PH](C)(C)[Au][S]CCO", 1]
]}
